experiment: photoluminescence quantum yield (fraction); solvent given as SMILES; conditions: in CO
Note to self: use T only for photoluminescence quantum yield readings below 0.3; a reading exactly at 0.3 still gets F.

CN(C)c1ccc(/C=C/C=C/c2nc3ccccc3o2)cc1
T
CC1(C)Cc2c(c3ccccc3c3nc4ccccc4nc23)O1
F
COc1ccccc1-c1nc(-c2ccc(C(F)(F)F)cc2)n(-c2ccc(C)cc2)c1-c1ccccc1OC
F
CN(C)c1ccc(/C=C2\OC(=O)c3cc(N)ccc32)cc1
T
CCN(CC)c1ccc2ccc(=O)oc2c1
T
CN(C)CCCN1c2ccccc2Sc2ccc(C(F)(F)F)cc21
T

---

Reported photoluminescence quantum yield by item:
assay: photoluminescence quantum yield (fraction); solvent given as SMILES; settings: in CC(C)O
observable: photoluminescence quantum yield

COc1ncccc1B(O)O
0.549
NNC(=O)NNN1C(=O)c2cc(S(=O)(=O)[O-])cc3c(N)c(S(=O)(=O)[O-])cc(c23)C1=O
0.62
COc1cc(OC)cc(-c2ccc(-c3ccc(C#N)s3)s2)c1
0.1
C[C@]12C(=O)NC(=O)N([C@H]3CC(O)[C@@H](CO)O3)[C@H]1[C@H]1Oc3cc4oc(=O)ccc4cc3[C@H]12 (stereo not given in full)
0.003
N#Cc1ccc(/C=C2\OC(=O)c3cc(N)ccc32)cc1
0.16
COc1cccc(/C=C/c2ccccc2)c1
0.15
COc1ccc2cc([C@H](C)C(=O)O)ccc2c1
0.23
COCCOCCOCCOc1ccc(OCCOCCOCCOC)c(C=O)c1
0.2
CN1C(=CC2=C([O-])C(=CC3=[N+](C)c4ccc(Cl)cc4C3(C)C)C2=O)C(C)(C)c2cc(Cl)ccc21
0.1
NS(=O)(=O)c1ccc(N2N=C(c3ccc(O)cc3)CC2c2ccc(F)cc2)cc1 (stereo not given)
0.52

---

experiment: photoluminescence quantum yield (fraction); solvent given as SMILES; details: in CS(C)=O
observable: photoluminescence quantum yield

[C-]#[N+]c1ccc(-c2ccc(N(C)C)cc2)cc1
0.76
O=C1OC(c2ccccc2)=N/C1=C\c1ccc(N(c2ccccc2)c2ccccc2)cc1
0.012
N#Cc1cccc2c(N)c(-c3nn([C@H]4C[C@H](O)[C@@H](CO)O4)c4ncnc(N)c34)ccc12
0.18
CCCN1/C(=C/C=C(/C=C/c2sc3ccccc3[n+]2CCC)c2ccc([N+](=O)[O-])cc2)C(C)(C)c2ccccc21
0.03
CC1=CC(c2ccc3cc(N(C)C)ccc3c2)=[O+][B-](F)(F)O1
0.22
c1ccc(-c2nc3sc4ccccc4c3s2)cc1
0.89
Cc1cc(C)c(B(c2ccc(-c3ccc(-c4nc5c6ccccc6c6ccccc6c5[nH]4)cc3)cc2)c2c(C)cc(C)cc2C)c(C)c1
0.49
Cc1ccc(C2C(C#N)=C(N)n3c(=O)c4ccccc4c(=O)n32)cc1 (centres undefined)
0.045
COc1ccccc1-c1c(-c2ccccc2O)nc(-c2ccc(C(F)(F)F)cc2)n1-c1ccc(C)cc1
0.01
CCOC(=O)c1[nH]c(C)c(/C=C/c2c(I)c(C)c3n2[B-](F)(F)[N+]2=C(C)C(I)=C(C)C2=C3c2cc(OC)cc(OC)c2)c1C
0.23
CCC1=C(C)C(=O)n2c1cc1c(c(C)c(C(=O)OCC(C)C)n1CC(C)C)c2=O
0.84
CCN(CC)c1ccc2cc(/C=C/C3=CC(/C=C/c4cc5ccc(N(CC)CC)cc5oc4=O)=[O+][B-](F)(F)O3)c(=O)oc2c1
0.008
O=c1oc2ccccc2cc1-c1cc2ccccc2o1
0.99
CCC1=C(C)C2=Cc3cscc3B(O)N2C1=O
0.87
C(=C\N1CCCC1)/c1nc2ccccc2nc1-c1ccccc1
0.112
Cc1cccn2c1cc1c3ccccc3nc(-c3ccc(Cl)o3)c12
0.31
CN(C)c1ccc2cc(C3=[O+][B-](F)(F)OC(c4ccccc4)=C3)ccc2c1
0.005
C[N+]1=C(/C=C/C=C2/N(CCCS(=O)(=O)[O-])c3ccccc3C2(C)C)C(C)(C)c2ccccc21
0.1
CCCCCCN(c1ccccc1)c1ccc2c(c1)C(CC)(CC)c1cc(/C=C/c3ccc(/C=C(\C#N)C(=O)O)s3)ccc1-2
0.322
